All values here come from ChEMBL document CHEMBL1149112.

Molecular target: Vitamin D3 receptor (Homo sapiens) (UniProt P11473)
Sequence (whole entry): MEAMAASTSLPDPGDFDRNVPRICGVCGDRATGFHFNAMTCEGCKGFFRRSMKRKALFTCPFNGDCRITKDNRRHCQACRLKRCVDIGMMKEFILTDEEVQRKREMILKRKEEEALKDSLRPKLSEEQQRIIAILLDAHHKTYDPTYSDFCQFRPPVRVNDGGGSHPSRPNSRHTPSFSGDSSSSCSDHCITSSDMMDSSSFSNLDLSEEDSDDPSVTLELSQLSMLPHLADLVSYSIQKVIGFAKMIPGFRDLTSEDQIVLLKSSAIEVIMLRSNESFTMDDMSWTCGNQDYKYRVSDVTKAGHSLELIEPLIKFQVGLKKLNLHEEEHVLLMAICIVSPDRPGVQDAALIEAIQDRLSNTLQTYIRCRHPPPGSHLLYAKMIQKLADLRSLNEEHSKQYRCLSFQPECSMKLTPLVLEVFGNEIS
Assay: Binding affinity against Vitamin D3 receptor with reference to compound 1
Outcome Measure: A/Ad

Look over these answered cases.
>>> result("C=C1/C(=C/C=C2/CCC[C@]3(C)[C@@H](C(C)COCC(C)(C)O)CC[C@@H]23)C[C@@H](O)C[C@@H]1O (stereo partly specified)")
0.2
>>> result("C=C1/C(=C/C=C2/CCC[C@@]3(C)[C@H]2CC[C@H]3[C@@H](C)CCCCC(O)(CC)CC)C[C@@H](O)C[C@@H]1O")
5
>>> result("C=C1/C(=C/C=C2/CCC[C@]3(C)[C@@H]([C@@H](C)CCCC(O)(CC)CC)CC[C@@H]23)C[C@@H](O)C[C@@H]1O")
100

a = C=C1/C(=C/C=C2/CCC[C@]3(C)[C@@H]([C@@H](C)CCCCC(O)(CC)CC)CC[C@@H]23)C[C@@H](O)C[C@@H]1O
b = C=C1/C(=C/C=C2/CCC[C@]3(C)C([C@H](C)OCCCC(O)(CC)CC)CC[C@@H]23)C[C@@H](O)C[C@@H]1O (single isomer, unassigned)
c = C=C1/C(=C/C=C2/CCC[C@]3(C)[C@@H]([C@@H](C)OCCCC(O)(CC)CC)CC[C@@H]23)C[C@@H](O)C[C@@H]1O
Query string: Which order do these items take when sorted by rising A/Ad? List them. Answer format: list of labels, ordered as asked.
Result string: b, a, c
(b: 20, a: 200, c: 200000)
